Ref: patent US11524951B2

- SYSTEM TESTED: L858R/T790M EGFR (Homo sapiens, UniProt P00533, L858R/T790M)
- Construct: Assays to measure cellular phosphorylation of endogenous p-EGFR in cell lysates; endogenous in cells
- Sequence (P00533 25-1210 T790M/L858R): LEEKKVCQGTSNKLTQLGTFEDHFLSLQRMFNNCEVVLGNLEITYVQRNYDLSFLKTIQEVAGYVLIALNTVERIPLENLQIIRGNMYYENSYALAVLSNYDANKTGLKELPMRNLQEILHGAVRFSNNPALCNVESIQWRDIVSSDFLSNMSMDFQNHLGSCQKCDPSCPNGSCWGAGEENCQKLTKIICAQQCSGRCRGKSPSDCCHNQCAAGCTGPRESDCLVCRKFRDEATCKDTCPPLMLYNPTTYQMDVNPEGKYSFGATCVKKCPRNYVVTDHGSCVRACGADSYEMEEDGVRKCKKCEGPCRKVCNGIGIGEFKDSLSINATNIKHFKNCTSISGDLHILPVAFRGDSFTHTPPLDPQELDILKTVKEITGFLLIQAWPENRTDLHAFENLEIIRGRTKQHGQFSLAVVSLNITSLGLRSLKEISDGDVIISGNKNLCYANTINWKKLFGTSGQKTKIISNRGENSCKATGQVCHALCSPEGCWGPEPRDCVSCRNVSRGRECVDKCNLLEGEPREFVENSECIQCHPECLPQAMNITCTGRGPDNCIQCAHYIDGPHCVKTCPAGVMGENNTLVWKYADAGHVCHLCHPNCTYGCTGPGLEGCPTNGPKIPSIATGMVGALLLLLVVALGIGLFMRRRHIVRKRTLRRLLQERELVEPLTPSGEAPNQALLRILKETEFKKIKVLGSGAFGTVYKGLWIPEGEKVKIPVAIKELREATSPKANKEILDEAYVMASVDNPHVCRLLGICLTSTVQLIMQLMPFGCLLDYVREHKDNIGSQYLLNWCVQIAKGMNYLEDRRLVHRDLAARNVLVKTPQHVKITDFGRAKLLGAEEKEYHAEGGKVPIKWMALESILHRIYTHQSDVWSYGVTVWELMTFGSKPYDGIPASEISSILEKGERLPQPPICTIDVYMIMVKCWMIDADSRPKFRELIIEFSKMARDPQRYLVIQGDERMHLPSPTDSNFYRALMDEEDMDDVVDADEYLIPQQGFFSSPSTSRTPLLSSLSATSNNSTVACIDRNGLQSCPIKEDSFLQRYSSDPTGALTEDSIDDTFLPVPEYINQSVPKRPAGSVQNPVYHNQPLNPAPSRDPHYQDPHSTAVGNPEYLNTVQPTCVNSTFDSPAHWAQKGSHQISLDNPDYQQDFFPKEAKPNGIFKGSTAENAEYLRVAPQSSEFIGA
- EXPERIMENT DESCRIPTION: L858R/T790M EGFR (double mutant) cellular phosphorylation assay
- STUDY CONDITIONS: NCI-H1975 human lung cells; endogenous p-EGFR in cell lysates by ELISA; 2 h with compound
- Method: Assay 2: L858R/T790M EGFR (Double Mutant) Cellular Phosphorylation Assay The human lung cell lines NCI-H1975 were obtained from the American type Culture Collection. […] Cells were grown in a humidified incubator at 37° C. with 5% CO2. […] 40 μL of cells were seeded (10000 cells/well) in growth medium in Corning black, clear-bottomed 384-well plates and incubated at 37° C. with 5% CO2 overnight. […] 20 μL QuantaBlu stop solution were added to plates and fluorescence read on an Envision plate reader using […]
PROPERTY LABEL: pIC50
Numbers only, as −log10 of the molar value.

STRUCTURE AS SMILES	PROPERTY LABEL	RECORDED NUMBER
C=CC(=O)Nc1cc(Nc2ncc(Cl)c(-c3c[nH]c4ccccc34)n2)c(OC)cc1N(C)CCN(C)C	pIC50	9.62
C=CC(=O)Nc1cc(Nc2ncc(Cl)c(-c3c[nH]c4ccccc34)n2)c(OC)cc1N1CC(N(C)C)C1	pIC50	8.74
C=CC(=O)Nc1cc(Nc2nccc(-c3cn(C)c4ccccc34)n2)c(OC)cc1N1CC(N(C)C)C1	pIC50	7.49
C=CC(=O)Nc1cc(Nc2nccc(-c3cnn4ccccc34)n2)c(OC)cc1N1CC[C@@H]2CN(C)C[C@@H]21	pIC50	8.54
C=CC(=O)Nc1cc(Nc2ncc(C#N)c(-c3cnn4ccccc34)n2)c(OC)cc1N(C)CCN(C)C	pIC50	9.00
C=CC(=O)Nc1cc(Nc2nccc(-c3c[nH]c4ccccc34)n2)c(OC)cc1N1CC[C@@H](N(C)C)C1	pIC50	7.84
C=CC(=O)Nc1cc(Nc2ncc(Cl)c(-c3cnn4ccccc34)n2)c(OC)cc1N1CCN(CC(=O)N(C)C)CC1	pIC50	7.40
C=CC(=O)Nc1cc(Nc2ncc(Cl)c(-c3cn(C)c4ccccc34)n2)c(OC)cc1N(C)CCN(C)C	pIC50	8.72

pIC50 recorded for this molecule, `C=CC(=O)Nc1cc(Nc2ncc(C)c(-c3cn(C)c4ccccc34)n2)c(OC)cc1N1CCN(C)CC1` , is 7.50

====

- SYSTEM TESTED: L858R/T790M EGFR (Homo sapiens, UniProt P00533, L858R/T790M)
- Construct: Assays to measure cellular phosphorylation of endogenous p-EGFR in cell lysates; endogenous in cells
- EXPERIMENT DESCRIPTION: L858R/T790M EGFR (double mutant) cellular phosphorylation assay
- STUDY CONDITIONS: NCI-H1975 human lung cells; endogenous p-EGFR in cell lysates by ELISA; 2 h with compound
Would you kindly list IC50 for each of these compounds?
One number for each entry, in nM.

COMPOUND	SYSTEM TESTED	MEASUREMENT UNIT	RECORDED NUMBER
C=CC(=O)Nc1cc(Nc2ncc(Cl)c(-c3cn(C)c4ccccc34)n2)c(OC)cc1N1CC(N(C)C)C1 [Example 34]	L858R/T790M EGFR (Homo sapiens, UniProt P00533, L858R/T790M)	nM	3.77
C=CC(=O)Nc1cc(Nc2nccc(-c3cnn4c3CCCC4)n2)c(OC)cc1N1CC(N(C)C)C1 [Example 46]	L858R/T790M EGFR (Homo sapiens, UniProt P00533, L858R/T790M)	nM	92.9

IC50 recorded for this compound, C=CC(=O)Nc1cc(Nc2nccc(-c3cnn4c3CCCC4)n2)c(OC)cc1N1CC2(CCCN2C)C1 [Example 47] , is 119

====

- SYSTEM TESTED: Exon19 deletion EGFR (Homo sapiens, UniProt P00533, DEL746-750)
- Construct: Assays to measure cellular phosphorylation of endogenous p-EGFR in cell lysates; endogenous in cells
- Sequence (P00533 with tags, fused parts or gaps DEL746-750): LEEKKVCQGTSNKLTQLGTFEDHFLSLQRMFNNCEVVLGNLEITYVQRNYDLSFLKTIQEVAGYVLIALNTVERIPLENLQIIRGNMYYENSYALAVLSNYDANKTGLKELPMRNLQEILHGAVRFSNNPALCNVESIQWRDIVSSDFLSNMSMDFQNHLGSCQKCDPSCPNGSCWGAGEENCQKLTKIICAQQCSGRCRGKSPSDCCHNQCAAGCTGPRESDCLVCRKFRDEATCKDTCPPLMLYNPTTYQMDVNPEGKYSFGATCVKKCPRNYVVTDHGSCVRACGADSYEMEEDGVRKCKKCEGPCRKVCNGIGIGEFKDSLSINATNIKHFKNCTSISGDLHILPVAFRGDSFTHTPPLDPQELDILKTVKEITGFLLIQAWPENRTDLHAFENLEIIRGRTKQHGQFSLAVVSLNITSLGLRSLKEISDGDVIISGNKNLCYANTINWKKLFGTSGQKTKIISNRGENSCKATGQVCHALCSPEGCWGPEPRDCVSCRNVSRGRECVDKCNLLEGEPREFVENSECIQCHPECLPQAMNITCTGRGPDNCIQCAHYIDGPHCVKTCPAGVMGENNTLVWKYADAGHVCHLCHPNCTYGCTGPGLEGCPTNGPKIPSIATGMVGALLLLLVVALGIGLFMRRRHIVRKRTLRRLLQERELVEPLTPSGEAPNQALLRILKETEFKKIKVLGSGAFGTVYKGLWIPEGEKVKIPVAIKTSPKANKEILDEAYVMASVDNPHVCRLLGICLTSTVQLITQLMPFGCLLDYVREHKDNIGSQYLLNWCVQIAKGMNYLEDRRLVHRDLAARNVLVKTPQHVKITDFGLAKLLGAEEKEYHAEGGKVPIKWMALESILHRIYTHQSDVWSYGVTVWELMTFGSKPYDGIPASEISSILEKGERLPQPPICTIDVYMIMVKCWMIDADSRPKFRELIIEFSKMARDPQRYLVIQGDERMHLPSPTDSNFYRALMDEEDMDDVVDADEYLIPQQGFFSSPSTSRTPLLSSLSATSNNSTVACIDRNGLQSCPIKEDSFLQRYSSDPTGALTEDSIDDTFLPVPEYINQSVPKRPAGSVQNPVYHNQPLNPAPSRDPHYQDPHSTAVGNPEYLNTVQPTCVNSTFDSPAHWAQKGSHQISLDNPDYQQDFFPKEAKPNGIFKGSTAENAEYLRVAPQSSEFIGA
- EXPERIMENT DESCRIPTION: Exon19 deletion EGFR (activating single mutant) cellular phosphorylation assay
- STUDY CONDITIONS: PC9 human lung cells (Exon 19 deletion EGFR); endogenous p-EGFR in cell lysates by ELISA; 2 h with compound; read-out: Assay 1 (IC50)
PROPERTY LABEL: pIC50
Numbers only, as −log10 of the molar value.

Some entries whose results are on file:
STRUCTURE AS SMILES	PROPERTY LABEL	RECORDED NUMBER
C=CC(=O)Nc1cc(Nc2ncc(C)c(-c3c[nH]c4ccccc34)n2)c(OC)cc1N1CCN(C)CC1	pIC50	7.98
C=CC(=O)Nc1cc(Nc2nccc(-c3c[nH]c4ccccc34)n2)c(OC)cc1N1CC[C@@H](N(C)C)C1	pIC50	8.19
C=CC(=O)Nc1cc(Nc2ncc(Cl)c(-c3cnn4ccccc34)n2)c(OC)cc1N1CC[C@@H](N(C)C)C1	pIC50	7.90
C=CC(=O)Nc1cc(Nc2ncc(C)c(-c3cn(C)c4ccccc34)n2)c(OC)cc1N1CC(N(C)C)C1	pIC50	8.07
C=CC(=O)Nc1cc(Nc2nccc(-c3c[nH]c4ccccc34)n2)c(OC)cc1N1CCN(C)CC1	pIC50	7.85
C=CC(=O)Nc1cc(Nc2ncc(C#N)c(-c3cn(C)c4ccccc34)n2)c(OC)cc1N1CCN(C)CC1	pIC50	7.77
C=CC(=O)Nc1cc(Nc2ncc(Cl)c(-c3cn(C)c4ccccc34)n2)c(OC)cc1N1CC(N(C)C)C1	pIC50	8.04
C=CC(=O)Nc1cc(Nc2ncc(Cl)c(-c3cnn4ccccc34)n2)c(OC)cc1C1=CCN(C)CC1	pIC50	8.00
C=CC(=O)Nc1cc(Nc2nccc(-c3cnn4ccccc34)n2)c(OC)cc1N1CC(N(C)C)C1	pIC50	7.45
C=CC(=O)Nc1cc(Nc2ncc(Cl)c(-c3c[nH]c4ccccc34)n2)c(OC)cc1N1CCN(C)CC1	pIC50	7.63

API: the following record is the query input.
// compound `C=CC(=O)Nc1cc(Nc2nccc(-c3cnn4c3CCCC4)n2)c(OC)cc1N1CC2(CCCN2C)C1` , assay Exon19 deletion EGFR (Homo sapiens, UniProt P00533, DEL746-750), pIC50 value: 6.71

====

- SYSTEM TESTED: Wild-type EGFR (Homo sapiens)
- Construct: Assays to measure cellular phosphorylation of endogenous p-EGFR in cell lysates; endogenous in cells
- Sequence (P00533 25-1210): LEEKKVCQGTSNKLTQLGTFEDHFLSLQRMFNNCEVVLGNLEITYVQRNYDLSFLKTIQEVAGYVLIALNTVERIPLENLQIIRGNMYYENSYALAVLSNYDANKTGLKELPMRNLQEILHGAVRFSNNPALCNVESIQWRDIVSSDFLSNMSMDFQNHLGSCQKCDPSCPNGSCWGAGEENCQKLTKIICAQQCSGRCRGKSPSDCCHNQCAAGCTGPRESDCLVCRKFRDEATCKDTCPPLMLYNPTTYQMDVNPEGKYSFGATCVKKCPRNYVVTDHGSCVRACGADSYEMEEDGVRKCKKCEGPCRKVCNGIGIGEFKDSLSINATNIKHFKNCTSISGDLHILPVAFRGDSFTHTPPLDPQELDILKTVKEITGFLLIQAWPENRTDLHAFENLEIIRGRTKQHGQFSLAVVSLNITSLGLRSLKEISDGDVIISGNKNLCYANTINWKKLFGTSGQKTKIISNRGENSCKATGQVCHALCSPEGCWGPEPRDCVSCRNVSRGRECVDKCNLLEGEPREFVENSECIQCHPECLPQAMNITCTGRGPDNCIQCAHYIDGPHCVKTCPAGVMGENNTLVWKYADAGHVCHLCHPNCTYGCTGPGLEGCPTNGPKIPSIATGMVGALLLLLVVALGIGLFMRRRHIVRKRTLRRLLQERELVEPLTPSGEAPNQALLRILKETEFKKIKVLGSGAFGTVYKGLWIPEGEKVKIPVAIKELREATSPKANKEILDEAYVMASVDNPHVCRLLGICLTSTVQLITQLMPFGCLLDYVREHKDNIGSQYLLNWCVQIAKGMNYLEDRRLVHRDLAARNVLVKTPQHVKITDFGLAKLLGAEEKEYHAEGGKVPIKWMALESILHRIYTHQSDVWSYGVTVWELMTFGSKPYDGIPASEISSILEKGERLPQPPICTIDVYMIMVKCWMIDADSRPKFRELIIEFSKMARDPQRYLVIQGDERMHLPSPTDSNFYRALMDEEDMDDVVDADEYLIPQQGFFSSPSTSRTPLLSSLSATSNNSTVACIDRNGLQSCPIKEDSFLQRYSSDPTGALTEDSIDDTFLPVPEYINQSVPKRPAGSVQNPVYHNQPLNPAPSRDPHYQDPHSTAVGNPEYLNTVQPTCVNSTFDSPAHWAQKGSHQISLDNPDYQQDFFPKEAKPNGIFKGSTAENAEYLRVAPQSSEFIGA
- EXPERIMENT DESCRIPTION: Wild-type EGFR cellular phosphorylation assay
- STUDY CONDITIONS: LoVo human colon cells; endogenous p-EGFR in cell lysates by ELISA; 2 h with compound, then stimulated 100 ng/ml for 10 minutes; read-out: Assay 3 (IC50)
PROPERTY LABEL: IC50

STRUCTURE AS SMILES	RESULT
C=CC(=O)Nc1cc(Nc2nccc(-c3c[nH]c4ccccc34)n2)c(OC)cc1N1CC[C@@H](N(C)C)C1	89.3 nM

# return IC50 for each item in the list
1. C=CC(=O)Nc1cc(Nc2ncc(Cl)c(-c3cnn4ccccc34)n2)c(OC)cc1N(C)CCN1CCOCC1
2. C=CC(=O)Nc1cc(Nc2nccc(-c3cn(C)c4ccccc34)n2)c(OC)cc1N1CC2(CCCN2C)C1

## Result
1: 2510 nM; 2: 3090 nM

====

- SYSTEM TESTED: Wild-type EGFR (Homo sapiens)
- Construct: Assays to measure cellular phosphorylation of endogenous p-EGFR in cell lysates; endogenous in cells
- EXPERIMENT DESCRIPTION: Wild-type EGFR cellular phosphorylation assay
- STUDY CONDITIONS: LoVo human colon cells; endogenous p-EGFR in cell lysates by ELISA; 2 h with compound, then stimulated 100 ng/ml for 10 minutes; read-out: Assay 3 (IC50)
PROPERTY LABEL: IC50 (nM)
One number for each entry, in nM.

MOLECULE	IC50, nM
C=CC(=O)Nc1cc(Nc2ncc(C#N)c(-c3cnn4ccccc34)n2)c(OC)cc1N(C)CCN(C)C [Example 39]	248

# return IC50 for each item in the list
1. C=CC(=O)Nc1cc(Nc2nccc(-c3cnn4c3CCCC4)n2)c(OC)cc1C1=CCN(C)CC1 [Example 45]
2. C=CC(=O)Nc1cc(Nc2ncc(C#N)c(-c3cn(C)c4ccccc34)n2)c(OC)cc1N1CCN(C)CC1 [Example 23]
3. C=CC(=O)Nc1cc(Nc2ncc(C#N)c(-c3cn(C)c4ccccc34)n2)c(OC)cc1N1CC[C@@H](N(C)C)C1 [Example 22]

## Result
1: 7400; 2: 3020; 3: 73.4
